Values from patent US9944602B2

# Tested on: wheat (Triticum aestivum)
# experiment: Test A postemergence wheat
# Assay type: in vivo
# study.conditions: 500 g ai/ha, 0 to 100 scale, 0 is no effect, 100 is complete control
readout.kind: Plant response rating, Wheat
// response body must contain only the number

(Q) Which Plant response rating, Wheat reading was recorded for the molecule `O=C1NCC[C@@H](c2cccc(C(F)(F)F)c2)[C@@H]1C(=O)Nc1ccc(F)c(F)c1F` ?
(A) 0

(Q) May I ask what Plant response rating, Wheat has been recorded for `O=C1NCC[C@@H](c2ccc(C(F)(F)F)cc2)[C@@H]1C(=O)Nc1ccc(F)c(F)c1F` ?
(A) 0

(Q) Plant response rating, Wheat lookup needed for O=C1NCCC(c2ccc(F)cc2)C1C(=O)Nc1ccccc1F (racemic) , thanks.
(A) 0
